Target: Protein translocase subunit SecA (Escherichia coli (strain K12))
Experiment: Assay to Identify E. coli SecA ATPase Inhibitors
Format: functional
Parameters: scale not given: direction of the effect not stated beside the values
Conditions: 30 µM
Measured potencies and affinities stand elsewhere.
REPORTED PROPERTY: Percent Effect (%)

CC(C)c1n[nH]c(C(=O)Nc2ccnn2C(C)C)c1Br; -9.82
CC(C)NC(=O)N1CCC2(C1)CN(c1ccsc1)C(=O)CN2C (stereo not drawn); -2.47
Cc1cccc(CN2C[C@@H]3CN(C(=O)NC(C)C)C[C@@H]3C2=O)c1; 0.524
Cc1ccc(CN2CCc3ncnc(-c4ccc(F)cc4)c3CC2)o1; -0.438
CS(=O)(=O)NC1CCCN(C(=O)NCc2cc[nH]n2)C1 (stereo not drawn); -5.06
CN(C)c1ccc(C(=O)NCC2(O)CCOCC2)cc1; -4.98
COCCC(=O)N1CC[C@@H](N(C)C)[C@@H]1Cc1ccccc1; -3.9
Cc1n[nH]c(C2CN(CC(=O)NCc3ccco3)CCO2)n1 (stereo not drawn); -7.98

Values compiled from ChEMBL document CHEMBL3988442.
